Where do these numbers come from? They come from patent US9890188B2.

# ASSAYED_SYSTEM: human rhinovirus 16 polymerase (HRV16pol) (Human rhinovirus 16)
# Sequence (Q82122 1694-2153 limits assumed): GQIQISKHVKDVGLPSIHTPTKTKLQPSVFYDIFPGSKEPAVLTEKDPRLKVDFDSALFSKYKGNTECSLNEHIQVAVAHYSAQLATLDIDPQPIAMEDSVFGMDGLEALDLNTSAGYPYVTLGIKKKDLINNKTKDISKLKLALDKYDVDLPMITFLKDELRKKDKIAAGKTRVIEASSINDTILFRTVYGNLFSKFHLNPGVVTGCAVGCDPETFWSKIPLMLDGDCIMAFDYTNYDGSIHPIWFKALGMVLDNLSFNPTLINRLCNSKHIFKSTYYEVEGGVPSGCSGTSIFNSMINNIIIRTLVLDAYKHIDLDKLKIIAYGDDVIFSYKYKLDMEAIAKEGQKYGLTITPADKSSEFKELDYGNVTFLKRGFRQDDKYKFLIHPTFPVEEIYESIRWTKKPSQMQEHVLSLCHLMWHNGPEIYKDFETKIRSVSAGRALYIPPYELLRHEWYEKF
# EXPERIMENT_NOTES: Picornavirus polymerase inhibition assay: incorporation of tritiated NMP into acid-insoluble RNA products
# Type: biochemical
# RECORDED_CONDITIONS: recombinant HRV16pol, 2.5 h at 30° C., mean of several independent experiments; read-out: IC50
PROPERTY_LABEL: IC50

## Task IC50 lookup needed for Nc1ccn([C@@H]2O[C@](CF)(COP(=O)(O)OP(=O)(O)OP(=O)(O)O)[C@@H](O)[C@@H]2O)c(=O)n1 [Compound 53] , thanks.
## Result < 5 µM

## Task IC50 lookup needed for C#C[C@]1(COP(=O)(O)OP(=O)(O)OP(=O)(O)O)O[C@@H](n2ccc(N)nc2=O)[C@@H](F)[C@@H]1O [Compound 22] , thanks.
## Result 5 to 20 µM

## Task IC50 lookup needed for C[C@@H]1[C@H](n2ccc(N)nc2=O)O[C@](CF)(COP(=O)(O)OP(=O)(O)OP(=O)(O)O)[C@H]1O [Compound 47] , thanks.
## Result < 5 µM

## Task IC50 lookup needed for [N-]=[N+]=NC[C@]1(COP(=O)(O)OP(=O)(O)OP(=O)(O)O)O[C@@H](n2ccc(N)nc2=O)[C@@H](F)[C@@H]1O [Compound 18] , thanks.
## Result 5 to 20 µM

###

# ASSAYED_SYSTEM: human rhinovirus 16 polymerase (HRV16pol) (Human rhinovirus 16)
# EXPERIMENT_NOTES: Picornavirus polymerase inhibition assay: incorporation of tritiated NMP into acid-insoluble RNA products
# Type: biochemical
# RECORDED_CONDITIONS: recombinant HRV16pol, 2.5 h at 30° C., mean of several independent experiments; read-out: IC50
Give measured IC50 for each item. Keep answers brief.

## Task Query for human rhinovirus 16 polymerase (HRV16pol) (Human rhinovirus 16): what IC50 does the record show for CC[C@]1(COP(=O)(O)OP(=O)(O)OP(=O)(O)O)O[C@@H](n2ccc(N)nc2=O)[C@@H](F)[C@@H]1O [Compound 24] ?
## Result < 5 µM

## Task Query for human rhinovirus 16 polymerase (HRV16pol) (Human rhinovirus 16): what IC50 does the record show for C#C[C@@H]1[C@H](n2ccc(N)nc2=O)O[C@](CF)(COP(=O)(O)OP(=O)(O)OP(=O)(O)O)[C@H]1O [Compound 48] ?
## Result < 5 µM

## Task Query for human rhinovirus 16 polymerase (HRV16pol) (Human rhinovirus 16): what IC50 does the record show for Nc1ccn([C@@H]2O[C@](CF)(COP(=O)(O)OP(=O)(O)OP(=O)(O)O)[C@@H](O)[C@@H]2Cl)c(=O)n1 [Compound 16] ?
## Result 20 to 100 µM

###

# System: Human rhinovirus 1B
# EXPERIMENT_NOTES: Picornavirus assay: human rhinovirus 1B cytopathic effect in HeLa-OHIO cells, CellTiter-Glo readout
# Type: cell-based
# RECORDED_CONDITIONS: Rhinovirus A, 96 h, compound and virus added together, 4 d at 33° C.
pEC50: −log10 of the molar value.
PROPERTY_LABEL: pEC50

## Task pEC50 lookup needed for `[N-]=[N+]=NC[C@]1(CO)O[C@@H](n2ccc(N)nc2=O)[C@@H](F)[C@@H]1O` , thanks.
## Result > 6.00

## Task pEC50 lookup needed for `Nc1ccn([C@@H]2O[C@@](CO)(CF)[C@@H](O)[C@@H]2Cl)c(=O)n1` , thanks.
## Result 5.00 to 6.00

## Task pEC50 lookup needed for `CC[C@]1(CO)O[C@@H](n2ccc(N)nc2=O)[C@@H](F)[C@@H]1O` , thanks.
## Result 5.00 to 6.00

## Task pEC50 lookup needed for `Nc1ccn([C@@H]2O[C@@](CO)(CF)[C@@H](O)[C@@H]2F)c(=O)n1` , thanks.
## Result > 6.00
